assay: NOVARTIS: Cytotoxicity against human hepatocellular carcinoma cell line (Huh7); format: toxicity, cell-based, Huh-7; conditions: Huh7 cells (hepatocellular carcinoma cell line)
Overview of recorded CC50 for various compounds
Outcome Measure: CC50

1) CCCCCCN(C(=O)c1ccc2ccccc2c1)C(CC)c1nc2ccccc2c(=O)n1-c1cccc(Cl)c1 (stereo not drawn) = > 10 µM
2) CCCN(CCC)C(=O)c1c[nH]c2ccc(S(=O)(=O)N(C)c3ccc(F)cc3)cc2c1=O = > 100 µM
3) Cc1ccc(S(=O)(=O)NCCCCNc2ccnc3cc(Cl)ccc23)cc1 = > 9.02 µM
4) CC(C)c1ccc(NC(=O)c2ccc(NCCCN(C)Cc3ccccc3)c([N+](=O)[O-])c2)cc1 = > 100 µM
5) O=C(NCCCCCCCCNC(=O)Nc1ccc(C2=NCCN2)cc1)Nc1ccc(C2=NCCN2)cc1 = > 10 µM
6) CC(=NO)c1ccc2c(c1)C(C)(C)CCC2(C)C = 37.1 µM
7) CCCCOC(=O)Cc1ccc(N)cc1 = 5.97 µM
8) CC1Cc2ccccc2N1C(=O)Cn1c(=O)oc2ccccc21 (stereo not drawn) = > 10 µM
9) O=C(Cn1c(-c2ccccc2)c[n+]2ccsc12)c1ccccc1 = > 10 µM
10) O=C(N/C(=C/C=C\c1ccccc1)C(=O)N1CCOCC1)c1ccc(Br)cc1 = > 10 µM
11) CC(C)CCNc1ncc(C(=O)NCC(C)C)c(NCCc2ccccc2)n1 = > 10 µM
12) CCCCCCCCC(=O)N1CCN(C(CC)c2nc3ccccc3c(=O)n2C)CC1 (stereo not drawn) = > 10 µM
13) Cc1cccc(-c2cc3nc(C)c(C)c(O)n3n2)c1 = > 100 µM
14) CN(C)CC(C)(C)CNCc1cc(-c2ccccc2)ccc1O = 38 µM
15) O=C(NNc1ccccc1F)C1CCC1 = > 10 µM
16) Nc1noc2cccc(OC3CCNCC3)c12 = > 10 µM
17) CC(=O)c1c(C)oc2ccc(NS(=O)(=O)c3cccc(C(=O)O)c3)cc12 = > 10 µM
18) CCCC1=NN(c2nc3ccccc3s2)C(=O)C1 = > 10 µM
19) CCOC(=O)CSc1nc2c(sc(=S)n2-c2ccc(Cl)c(C)c2)c(=O)n1-c1ccccc1OC = > 10 µM
20) CN(Cc1ccccc1)C(=O)CSc1nc(NCc2ccccc2)c2ccccc2n1 = > 100 µM
21) CC(=O)Nn1c(C(C)(C)C)nc2ccccc2c1=O = > 10 µM
22) N#C/C(=C\c1cn(Cc2ccc(Cl)cc2Cl)c2ccccc12)c1nc2ccccc2[nH]1 = > 10 µM
23) Fc1ccc(CNc2ccnc3cc(Cl)ccc23)cc1 = > 10 µM
24) CCCCOc1ccc(C(=O)Oc2ccccc2-c2nc3cc(C)ccn3c2NC(C)(C)CC(C)(C)C)cc1 = > 10 µM
25) CCC(C)(C)C1CCc2sc3ncnc(NN=Cc4c(Cl)cccc4Cl)c3c2C1 (stereo not drawn) = > 100 µM
26) Cc1cc(-c2ccc(O)c(CN3CCCCCC3)c2)c2ccccc2n1 = 55.9 µM
27) COc1cccc(-c2ccc(O)c(CNC(C)c3cccc4ccccc34)c2)n1 (stereo not drawn) = 61.2 µM
28) CC(C)Nc1ccc(Nc2ccnc3cc4ccccc4cc23)cc1 = 5.4 µM
29) COc1ccc(C2CC(=O)C3=C(C2)NC(C)=C(C(=O)OC2CCCC2)C3c2ccc(SC)cc2)cc1OC (stereo not drawn) = > 100 µM
30) O=C(Nc1ccc(SC(F)(F)F)cc1)Nc1cccnc1N1CCC(C(F)(F)F)CC1 = 39.7 µM
31) CC(C)N1CCCC(C(=O)Nc2ccc(-c3nc4ccccc4[nH]3)cc2)C1 (stereo not drawn) = > 10 µM
32) Cc1ccn2c(NC(C)(C)CC(C)(C)C)c(-c3ccccc3OC(=O)CCc3ccccc3)nc2c1 = > 10 µM
33) O=C(Nc1ccc(-c2noc(CCc3ccccc3)n2)cc1)c1cccs1 = 15.7 µM
34) COc1cc(CNc2ccc(N3CCCCC3)cc2)ccc1OCc1ccccc1F = > 100 µM
35) COc1ccc(C(=O)/C(C#N)=C/NC2CCN(Cc3ccccc3)CC2)cc1 = > 10 µM
36) O=C1C(Nc2ccc(F)cc2)=C(N2CCCCC2)C(=O)c2ccccc21 = 36.8 µM
37) C1=C(c2ccc(CN3CCCCC3)cc2)N2CCN=C2c2ccccc21 = 4.14 µM
38) Cc1cnc(C)c(-c2ccc(O)c(CNCC3(N4CCCCC4)CCCCC3)c2)n1 = > 7.78 µM
39) CCOc1ccc2c(c1)cc(CN(C(C)=O)C1CCCC1)c1nnnn12 = > 10 µM
40) COc1cc(C(=O)NC(c2cccs2)c2cc(Cl)c3cccnc3c2O)cc(OC)c1OC (stereo not drawn) = > 100 µM
41) CC(NCc1cc(-c2ccccc2)ccc1O)c1cccc2ccccc12 (stereo not drawn) = > 10 µM
42) c1ccc(-c2csc(Nc3nc4cc5c(cc4s3)OCO5)n2)nc1 = > 100 µM
43) COc1cc2c(cc1OC)-c1cc3ccc4c(c3c[n+]1CC2)OCO4 = > 6.25 µM

* * *

assay: NOVARTIS: Cytotoxicity against human hepatocellular carcinoma cell line (Huh7); format: toxicity, cell-based, Huh-7; conditions: Huh7 cells (hepatocellular carcinoma cell line)
Outcome Measure: CC50

1. CCc1ccccc1NC(=O)C1c2ccccc2C(=O)N(CC(C)C)C1c1cccs1 (stereo not given) = > 97.2 µM
2. O=C(Nc1cccc(C(F)(F)F)c1)c1ccc(-c2cccs2)cc1 = 7.13 µM
3. O=C(O)c1ccc(S(=O)(=O)c2ccc3c(c2)C(=O)N(c2ccc(Sc4ccc([N+](=O)[O-])cc4)cc2)C3=O)cc1 = > 10 µM
4. O=C(Nc1cccc(C2=NCCN2)c1)c1ccc(C(=O)Nc2cccc(C3=NCCN3)c2)cc1 = > 10 µM
5. O=C1NC(=S)N/C1=C/c1cccc(Oc2ccccc2)c1 = > 10 µM

* * *

We begin with a simple list: items and their reported EC50.
test system: Plasmodium falciparum; assay: NOVARTIS: Inhibition of Plasmodium falciparum W2 (drug-resistant) proliferation in erythrocyte-based infection assay; type: functional, organism-based; conditions: Plasmodium falciparum, W2; read-out: EC50
Outcome Measure: EC50 (µM)

1) Cc1c(CN2CCC(N3CCC(C(=O)NC4CC4)CC3)CC2)[nH]c2c(Cl)cccc12 = 1.4
2) CCN(CC)CCCC(C)Nc1ccnc2ccc([N+](=O)[O-])cc12 (centres undefined) = 0.747
3) CC1=CC[C@@H](/C(C)=C/c2csc(C)n2)OC(=O)C[C@H](O)C(C)(C)C(=O)[C@H](C)[C@@H](O)[C@@H](C)CCC1 = 0.0258
4) CCOC(=O)COC1=C(CCCCC2CCCCC2)C(=O)c2ccccc2C1=O = 1.22
5) Cc1ccc(C)c(NC(=O)c2c(-c3c(Cl)cccc3Cl)noc2C)c1 = 0.443
6) CS(=O)(=O)N(CCc1ccccc1)CC(O)CN1CCC(CNC(=O)NC(c2ccccc2)c2ccccc2)CC1 (centres undefined) = 1.02
7) CCN1CCN(c2cc(C)c3cc(NC(=O)c4cncc(Br)c4)ccc3n2)CC1 = 0.411
8) Cc1ccc(-c2nn3c(O)c4c(nc3c2C)CCCC4)cc1 = 0.384

* * *

tested on: Plasmodium falciparum; assay: NOVARTIS: Inhibition of Plasmodium falciparum 3D7 (drug-susceptible) proliferation in erythrocyte-based infection assay; type: functional, organism-based; conditions: Plasmodium falciparum, 3D7
pEC50: −log10 of the molar value.
Outcome Measure: pEC50

1) c1ccc(CCc2nc3cccnc3n2C2CCN(C3CCN(Cc4ccccc4)CC3)CC2)cc1 = 6.81
2) CSC1=NC(=Nc2c(C)cccc2C)C2(CCC(C(C)(C)C)CC2)N1c1ccc(Cl)cc1 (stereo unspecified) = 5.83
3) COc1ccc(Nc2nc(NCc3ccco3)c3ccccc3n2)cc1 = 6.60
4) Cc1cccc(N2CCN(c3nc4ccccc4c4nnc(C)n34)CC2)c1C = 5.36
5) CCCc1ccc(OCc2nc(-c3ccc(NC(=O)c4cccs4)cc3)no2)cc1 = 6.08
6) O=C(NC(CN1CCCC1)c1ccccc1)C1CCN(S(=O)(=O)c2ccc(Cl)cc2)CC1 (stereo unspecified) = 6.79
7) CC(=O)N1c2ccc(C)cc2C(C)(c2ccccc2)CC1(C)C (stereo unspecified) = 6.11
8) OC(CN1CCN(C/C=C/c2ccccc2)CC1)Cn1c2ccc(Br)cc2c2cc(Br)ccc21 (stereo unspecified) = 6.23
9) CCCc1nc2ccc(NC(=O)NCC)cc2c(=O)n1Cc1ccc(-c2ccccc2)cc1 = 5.04
10) O=C(Nc1ccc(-c2nc3ccc(NC(=O)c4ccc(Br)cc4)cc3[nH]2)cc1)c1ccc(Br)cc1 = 6.50
11) CCOc1ccc(Nc2nc(N)c3ccccc3n2)cc1 = 6.06
12) CN(C)CCCNCc1cc(-c2cccnc2)ccc1O = 6.62
13) NNC(=O)C1CCCN1S(=O)(=O)c1ccc(Cl)cc1 (stereo unspecified) = 6.25
14) COc1ccc(C[C@H](N)C(=O)N[C@H]2[C@@H](O)[C@H](n3cnc4c(N(C)C)ncnc43)O[C@@H]2CO)cc1 = 6.21
15) CC(C)NC(=O)c1cc(NC(=O)c2cccs2)ccc1N1CCc2ccccc2C1 = 5.90
16) COc1ccccc1N1C(=N)S/C(=C\c2ccc(OCc3ccccc3F)cc2)C1=O = 6.13
17) Oc1c2c(nc3cc(-c4ccccc4)nn13)CCCC2 = 5.72
18) CCCCCCN(C(=O)c1cccc(C(F)(F)F)c1)C(CC)c1nc2ccccc2c(=O)n1-c1ccccc1OC (stereo unspecified) = 6.10
